Values compiled from patent US20180141988A1.

Listed binders paired with reported koff
# SYSTEM_UNDER_TEST: T1, Human GPC3 (2119-GP; R&D systems), biotinylated (human, UniProt P51654 25-559, biotinylated using standard NHS chemistry)
# T1 construct: Bought protein; also called human Glypican-3
# TEST_METHOD_NOTES: SPR (Biacore T200), biotinylated GPC3 captured on chip, mutein in flow
Number first, unit second: that is the form wanted.

Incoming: Quick one: give measured koff for lipocalin mutein of SEQ ID NO: 4 (designed binder, hNGAL (Lcn2) mutein; also called non-optimized GPC3-specific Lcn2 mutein; mother clone) QDSTSDLIPAPPLSKVPLQQNFQDNQFHGKWYVVGRAGNVALREDKDPPKMRATIYELKEDKSYNVTNVRFAMKKCMYSIGTFVPGSQPGEFTLGQIKSEPGNTSNLVRVVSTNYNQHAMVFFKEVYQNREIFFITLYGRTKELTSELKENFIRFSKSLGLPENHIVFPVPIDQCIDGSAWSHPQFEK
Outgoing: 0.0022 s⁻¹

Incoming: Quick one: give measured koff for lipocalin mutein of SEQ ID NO: 8 (designed binder, hNGAL (Lcn2) mutein; also called optimized GPC3 specific lipocalin mutein) QDSTSDLIPAPPLSKVPLQQNFQDNQFQGKWYVVGRAGNVGLREDKDPPKMWATIYELKEDKSYDVTNVRFARKKCLYSIGTFVPGSQPGEFTLGQIKSEPGNTANLVRVVSTNYNQHAMVFFKEVYQNREIFFIILYGRTKELTSELKENFIRFSKSLGLPENHIVFPVPIDQCIDGSAWSHPQFEK
Outgoing: 0.00013 s⁻¹

Incoming: Quick one: give measured koff for lipocalin mutein of SEQ ID NO: 9 (designed binder, hNGAL (Lcn2) mutein; also called optimized GPC3 specific lipocalin mutein) QDSTSDLIPAPPLSKVPLQQNFQDNQFQGKWYVVGRAGNVGLREDKDPPKMWATIYELKEDKSYDVTNVRFARKKCTYSIGTFVPGSQPGEFTLGQIKSEPGGTANLVRVVSTNYNQHAMVFFKEVYQNREIFFIILYGRTKELTSELKENFIRFSKSLGLPENHIVFPVPIDQCIDGSAWSHPQFEK
Outgoing: 9.8e-05 s⁻¹

More entries:
Incoming: Quick one: give measured koff for lipocalin mutein of SEQ ID NO: 11 (designed binder, hNGAL (Lcn2) mutein; also called optimized GPC3 specific lipocalin mutein) QDSTSDLIPAPPLSKVPLQQNFQDNQFQGKWYVVGRAGNVALREDKDPPKMRATIYELKEDKSYDVTAVRFARKKCLYSIGTFVPGSQPGEFTLGRIKSEPGYTANLVRVVSTNYNQHAMVFFKEVYQNREIFFIILYGRTKELTSELKENFIRFSKSLGLPENHIVFPVPIDQCIDGSAWSHPQFEK
Outgoing: 4.6e-05 s⁻¹

Incoming: Quick one: give measured koff for lipocalin mutein of SEQ ID NO: 12 (designed binder, hNGAL (Lcn2) mutein; also called optimized GPC3 specific lipocalin mutein) QDSTSDLIPAPPLSKVPLQQNFQDNQFQGKWYVVGRAGNVALREDKDPPKMRATIYELKEDKSYDVTNVVFAGKKCKYSIGTFVPGSQPGEFTLGRIKSPPGNTANLVRVVSTNYNQHAMVFFKEVYQNREIFFIILYGRTKELTSELKENFIRFSKSLGLPENHIVFPVPIDQCIDGSAWSHPQFEK
Outgoing: 0.00024 s⁻¹

Incoming: Quick one: give measured koff for lipocalin mutein of SEQ ID NO: 5 (designed binder, hNGAL (Lcn2) mutein; also called optimized GPC3 specific lipocalin mutein) QDSTSDLIPAPPLSKVPLQQNFQDNQFQGKWYVVGVAGNALLREDKDPLKMRATIYELKEDKSYDVTVVSFWRKKCHYKIGTFVPGSQPGEFTLGDIKSGPGQTSNLVRVVSTNYNQHAMVFFKEVRQNREWFAITLYGRTKELTSELKENFIRFSKSLGLPENHIVFPVPIDQCIDGSAWSHPQFEK
Outgoing: 0.0002 s⁻¹
